- Test system: DMS 273 small cell lung
- experiment: NCI tumour cell line growth inhibition, 48 h
// values below are reported TGI

> print(dat)
                                   compound          measured.target  endpoint.name    result
1     COC(=O)Cc1cc(=O)n2c3ccccc3n(C)c2c1C#N  DMS 273 small cell lung            TGI  > 100 µM
2  Nc1cccc(-c2cc(=O)c3cc4c(cc3[nH]2)OCO4)c1  DMS 273 small cell lung            TGI   3.83 µM

// fetch TGI given entry COC(=O)CC1(O)C(=O)OCc2c1cc1n(c2=O)Cc2c-1nc1ccccc1c2OC (stereo unspecified) 3.35 µM

// fetch TGI given entry Cc1c(Cl)ccc2c1NC(=O)C2(O)CC(=O)c1ccc(Cl)cc1 (stereo unspecified) > 100 µM

// fetch TGI given entry "Brc1ccc2[nH]c3c(C4=NCCC4)nccc3c2c1" > 76 µM

// fetch TGI given entry "O=C(N/C(=C\c1ccc([N+](=O)[O-])cc1)c1nc2ccccc2s1)c1ccccc1" > 100 µM

---

- Tested on: U251 CNS
Classes to choose from: T (active), F (inactive)

Study these solved cases before continuing.
compound	assigned-class
CC1[C@@]2(CCC(C)(C)O2)O[C@@H]2C=C3C4CCC5Cc6nc7c(nc6C[C@@]5(C)C4C[C@H](O)[C@@]3(C)[C@]12O)CC1CCC2C3=C[C@H]4O[C@@]5(O[C@@](C)(CO)C[C@@H]5O)C(C)[C@@]4(O)[C@]3(C)[C@@H](O)CC2[C@]1(C)C7 (stereo partly drawn)	T
CCSC[C@@H]1C[C@](O)(c2ccccc2)[C@@H](c2ccccc2)O1	F
CCN(CC)CCOC(COc1cc(C)cc(C)c1)COc1cc(C)cc(C)c1	F
Cc1cc(N2CCC(N3CCCC3)CC2)nc(/N=C(\N)Nc2ccc(Cl)c(Cl)c2)n1	F
Cc1ccc(-c2nc(NCCOCCOCCN)nc(N3CCN(c4ccccn4)CC3)n2)cc1	F

Recorded test call requested for "CCCN1C(=O)/C(=C/c2ccc(SC(F)(F)F)cc2)SC1=Nc1ccc(OC)cc1" F

Recorded test call requested for "Clc1ccc(C=Nc2ccc(-c3nc4ccccc4[nH]3)cc2)cc1" F

Recorded test call requested for "COc1cc2c(c(OC)c1OC)-c1cc(I)c(O)cc1[C@@H](NC(C)=O)CC2" T

---

- Tested on: A549 NSCLC
- experiment: NCI tumour cell line growth inhibition, 48 h
// values below are reported GI50

// fetch GI50 given entry "Cc1cc(NC(=O)NCc2ccc(N3C(N)=NC(N)=NC3(C)C)cc2)ccc1S(=O)(=O)F" 528 nM

// fetch GI50 given entry "Cc1ccc(NCCNCC(C)(C)O)c2c(=O)c3ccc(Cl)cc3sc12" 1640 nM

// fetch GI50 given entry "CCCC(=O)Nc1cc(C(=O)N2C[C@H]3C[C@@]34C2=CC(=O)c2[nH]cc(C)c24)n(COC)c1" 1200 nM

// fetch GI50 given entry "CN(C)CCCN1c2ccccc2Sc2ccc(C(F)(F)F)cc21" 1890 nM

// fetch GI50 given entry "CC(=O)ON(OCc1ccc2ccccc2c1)C(C)=O" > 100000 nM

---

- Test system: NCI-H23 lung
- experiment: NCI tumour cell line growth inhibition, 48 h; in the data active = GI50 below about 0.43 µM; inactive = the rest
Classes to choose from: TRUE for active, FALSE for inactive

> print(dat)
                            chemical.smiles  assigned.class
1          Nc1nc(SCc2ccccc2CCl)c2[nH]cnc2n1           FALSE
2  COc1cc(N=Nc2cc(Cc3ccc(N(C)C)cc3)c(N)cc2N(C)C)c2ncccc2c1            TRUE
3  CC[C@H](C)[C@H](NC(=O)[C@H]1CCCCN1C)C(=O)N(C)[C@H](CCc1nc(C(=O)N[C@@H](Cc2ccccc2)C[C@H](C)C(=O)O)cs1)C(C)C           FALSE
4  CCc1ccc2c(c1)C(=O)c1c-2n(CCCN)c(=O)c2cc(OC)c(OC)cc12           FALSE
5  Clc1ccc(C=Nc2ccc(-c3nc4ccccc4[nH]3)cc2)cc1           FALSE

Recorded test call requested for "COc1cc2ncn(-c3cc(OCc4ccccc4C(F)(F)F)c(C(N)=O)s3)c2cc1OC" TRUE

Recorded test call requested for "CCCC(=O)Nc1cc(C(=O)N2C[C@H]3C[C@@]34C2=CC(=O)c2[nH]cc(C)c24)n(COC)c1" TRUE

Recorded test call requested for "Cc1cc(N2CCC(N3CCCC3)CC2)nc(/N=C(\N)Nc2ccc(Cl)c(Cl)c2)n1" FALSE

Recorded test call requested for "N[C@@H]1CCCN(c2c(Br)cnc3[nH]cc(NC(=O)C4CC4)c23)C1" TRUE

Recorded test call requested for "CCSC[C@@H]1C[C@](O)(c2ccccc2)[C@@H](c2ccccc2)O1" FALSE

Recorded test call requested for "[Br][Pb]([c]1ccccc1)([c]1ccccc1)[c]1ccccc1" TRUE

---

// values below are reported TGI
- Test system: RXF 393 renal
- experiment: NCI tumour cell line growth inhibition, 48 h
Please give a number only; it is taken to be in µM.

> print(dat)
                                   compound  numeric.value
1  CC(=O)Oc1ccc2cc(Oc3cc(Cl)c(Cl)cc3Cl)c(=O)oc2c1           31.5
2                   S=c1ssnc1-c1cc2ccccc2o1           23.3
3  CC(C)=C[C@@H]1C[C@H](C)[C@H]2CC[C@H](C)c3c(O)c(OC4OC(C)C(O)C(O)C4O)c(C)c1c32 (stereo partly specified)           23.2

Report the value of TGI obtained on RXF 393 renal for "Nc1nc(Sc2ccc([N+](=O)[O-])c3nonc23)c2[nH]cnc2n1" . 8.32

Report the value of TGI obtained on RXF 393 renal for "CCOC(=O)c1ccc(N(CCOS(C)(=O)=O)CCOS(C)(=O)=O)cc1" . 38.5

Report the value of TGI obtained on RXF 393 renal for "COC(=O)c1c(C(=O)OC)c(-c2ccccc2)n(-c2ccccc2)c(=O)c1-c1ccccc1" . 60.8

Report the value of TGI obtained on RXF 393 renal for "Cc1ccc(NCCNCC(C)(C)O)c2c(=O)c3ccc(Cl)cc3sc12" . 2.61

Report the value of TGI obtained on RXF 393 renal for "CC(C)=CCC[C@@H](C)C1=C(O)C(N[C@H](C)c2ccccc2)=C(C)C(=O)C1=O" . 25

Report the value of TGI obtained on RXF 393 renal for "Cc1ccc(C2=CC(=O)/C(=C\C(=O)c3ccc(Br)cc3)O2)c(C)c1" . 14.1

---

- System: BT-549 breast
- experiment: NCI tumour cell line growth inhibition, 48 h
endpoint-name: GI50

> print(dat)
                            chemical.smiles       result
1  N[C@@H]1CCCN(c2c(Br)cnc3[nH]cc(NC(=O)C4CC4)c23)C1       450 nM
2                         O=c1c(I)c[nH]cc1I  > 100000 nM
3  NC(=NCCCCCCN=C(N)/N=C(\N)Nc1ccc(Cl)cc1)/N=C(\N)Nc1ccc(Cl)cc1      1520 nM
4  CCN(CC)c1ccc(/C=N/NC(=O)Cc2ccc(Nc3ccnc(C(F)(F)F)c3)cc2)c(O)c1       965 nM
5          [O]=[Sn]([CH]1CCCCC1)[CH]1CCCCC1       229 nM

Okay, next one:
// fetch GI50 given entry "COC(=O)c1c(C)nc(C)c2c1C(=O)C(Br)=C(NCc1ccccc1)C2=O" 4090 nM

---

// values below are reported TGI
- Test system: SF-268 CNS
- experiment: NCI tumour cell line growth inhibition, 48 h

// fetch TGI given entry "CCN(CC)CCOC(COc1cc(C)cc(C)c1)COc1cc(C)cc(C)c1" 17.6 µM

---

// values below are reported TGI
- System: UO-31 renal
- experiment: NCI tumour cell line growth inhibition, 48 h

Answered cases to consult:
compound	result
OCCCN=C1CCCCC1	> 100 µM
O=C1NC(N2CCCC(CO)C2)=N/C1=C\c1cccs1 (stereo not given)	> 100 µM

// fetch TGI given entry "O=C(C[N+]12CN3CN(CN(C3)C1)C2)c1ccc(-c2ccccc2)cc1" 61.8 µM

// fetch TGI given entry "O=C(N/C(=C\c1ccc([N+](=O)[O-])cc1)c1nc2ccccc2s1)c1ccccc1" 56.3 µM

// fetch TGI given entry "Cc1sc(/N=C/C2=C(O)CC(C)(C)CC2=O)nc1-c1ccccc1" > 100 µM

// fetch TGI given entry "Cc1c2cc[n+](Cc3ccc(I)cc3)cc2c(C)c2c1[nH]c1ccccc12" 15.8 µM
